molecular target: Arginase-2, mitochondrial (Homo sapiens) (UniProt P78540); experiment: in vitro enzyme assay to detect the production of urea directly proportional to the activity of Arginase II; type: functional; design: scale not given: in the data most compounds retested in dose-response had high values; settings: 33.3 µM
Sequence (P78540 whole entry): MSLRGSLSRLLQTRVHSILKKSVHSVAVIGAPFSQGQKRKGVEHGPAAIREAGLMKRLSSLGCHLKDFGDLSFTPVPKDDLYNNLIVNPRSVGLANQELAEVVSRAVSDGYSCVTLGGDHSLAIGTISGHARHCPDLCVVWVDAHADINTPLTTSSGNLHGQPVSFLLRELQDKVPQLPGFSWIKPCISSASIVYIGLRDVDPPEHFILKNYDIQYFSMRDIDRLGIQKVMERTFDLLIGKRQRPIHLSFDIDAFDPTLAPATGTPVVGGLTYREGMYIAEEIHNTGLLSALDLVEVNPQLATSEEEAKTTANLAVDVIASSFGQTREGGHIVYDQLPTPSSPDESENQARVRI
readout-type: Percent Effect (%)
// units = %; emit number, no label

Solved cases below.
Data request: Requested read-out: Percent Effect. Entry: Cc1cnn(CC2CCCCN2CC(=O)Nc2c(C)n[nH]c2C)c1 (centres undefined)
Data returned: -5.81

Data request: Param item: COc1cc(C(=O)NS(=O)(=O)c2cccc(C#N)c2)cc(Cl)c1OC
Data returned: 3.51

Further cases:
Data request: Requested read-out: Percent Effect. Entry: CS(=O)(=O)c1ccc(NC(=O)NCc2ccc3c(c2)CCC3)cn1
Data returned: -38.9

Data request: Param item: Cc1ccc(C(O)CNCCn2cccn2)cc1C (centres undefined)
Data returned: 1.33

Data request: Param item: CCc1ccc(CN2CCC3(CC2)CNC(=O)CO3)o1
Data returned: 1.25

Data request: Param item: CCOc1ccccc1C(=O)N1CCCC1c1ncc2c(n1)CCNC2 (centres undefined)
Data returned: -4.42

Data request: Param item: CN(C)S(=O)(=O)N1CCC(Oc2ccc(C#N)cc2)CC1
Data returned: 1.77

Data request: Param item: CC(C)CCCNC(=O)Nc1ccc(F)c(C(N)=O)c1
Data returned: -6.76

Data request: Param item: COc1ccc(CN2CC[C@@H](O)[C@@H]2Cc2ccccc2)cc1
Data returned: -6.16

Data request: Param item: Cc1cc(C2CCCN2C(=O)c2cc3c(s2)CCC3)on1 (centres undefined)
Data returned: -1.92

Data request: Param item: Cc1noc(C(C)C)c1C(=O)NCCCOC(C)C
Data returned: -2.25

Data request: Param item: O=C(NC[C@H]1OC[C@@H]2CCN(Cc3ccco3)C[C@@H]21)c1ccsc1
Data returned: -9.58

Data request: Param item: Cc1cnc(CN2CCC(N(C)Cc3nnc(C4CC4)n3C)C2)cn1 (centres undefined)
Data returned: 2.73

Data request: Param item: Cc1cc(OCC(=O)NS(=O)(=O)c2c(C)noc2C)ccc1Cl
Data returned: 0

====

molecular target: Tyrosyl-tRNA synthetase, putative (Trypanosoma cruzi (strain CL Brener)); assay: Trypanosoma cruzi tyrosyl tRNA synthetase (TcYRS) _High Tyrosine SOP; assay type: functional; design: scale not given: in the data most compounds retested in dose-response had high values; settings: 30 µM
readout-type: Percent Effect (%)
// units = %; emit number, no label

Data request: Requested read-out: Percent Effect. Entry: c1ccc(OCc2nnc3n2CCN(CC2CCOCC2)C3)nc1
Data returned: 0.526

Data request: Param item: CC(=O)N1CCC2(CCCN(C(=O)c3ccccc3)C2)C1 (stereo not drawn)
Data returned: 2.13

Data request: Param item: Cc1nn(C)c2c(NCCCn3cccn3)ncnc12
Data returned: 2.12

Data request: Param item: Cc1ncsc1CCC(=O)N1CCCC[C@H](N(C)C)C1
Data returned: 7.98

Further cases:
Data request: Requested read-out: Percent Effect. Entry: Cc1cnn(CC2CN(CC(=O)Nc3nnc(C)s3)CCO2)c1 (stereo not drawn)
Data returned: 3.43

Data request: Param item: CCOC(=O)CN1CCC2(CC1)CC(=O)c1ccc(OC)cc1O2
Data returned: 1.93

Data request: Param item: CCCS(=O)(=O)N1CCN(c2ccnc(N3CCCC3)n2)CC1
Data returned: 2.66

Data request: Param item: CC(C)c1nc2c(n1C)CCN(CC(=O)Nc1nccs1)C2
Data returned: 9.52

Data request: Param item: O=C(c1cccn2ccnc12)N1CCCN(c2cccnn2)CC1
Data returned: 0.952

Data request: Param item: O=S(=O)(c1ccccc1Cl)N1CCc2nc(C3CCNCC3)ncc2C1
Data returned: 6.35

Data request: Param item: Cn1nc2c(cc1=O)CN(Cc1nc(-c3cccs3)no1)CC2
Data returned: -0.526

Data request: Param item: CN(C)CCN1C[C@@H]2CN(C(=O)c3ccsc3)C[C@@H]2C1=O
Data returned: 0

Data request: Param item: CS(=O)(=O)N1CCN(C(=O)Cn2ccc3c(Cl)cccc32)CC1
Data returned: 2.66

Data request: Param item: CN(CCC(F)(F)F)C(=O)[C@H]1CSCN1C(=O)OC(C)(C)C
Data returned: 1.07

Data request: Param item: O=C(C1CC1)N1CCN(Cc2coc(-c3ccc(Cl)cc3)n2)CC1
Data returned: 3.88

Data request: Param item: c1ncn(CC2CN(Cc3noc(C4CC4)n3)CCO2)n1 (stereo not drawn)
Data returned: -1.58

Data request: Param item: COc1ccc(-n2nnc(C(=O)NC(C)C)c2C2CC2)cc1
Data returned: 0

Data request: Param item: CC(NCc1c(C(C)C)nn(C)c1N1CCOCC1)C(N)=O (stereo not drawn)
Data returned: 0.478

Data request: Param item: CCN1CC2(CCN(CCOCCO)CC2)CC(c2ccccc2)C1=O (stereo not drawn)
Data returned: 2.73

Data request: Param item: Cc1nc2c(c(C)c1CC(=O)NCc1cccc(C#N)c1)c(=O)[nH]n2C
Data returned: 2.86

Data request: Param item: O=C1CCC2(CCCN(C(=O)c3cscn3)C2)CN1CCc1c[nH]cn1 (stereo not drawn)
Data returned: 5.38

Data request: Param item: Cc1ccc(CNCCOc2ccc(S(C)(=O)=O)cc2)cc1
Data returned: 4.17

Data request: Param item: O=C1NC2(CCN(Cc3nccs3)CC2)CC1c1ccncc1 (stereo not drawn)
Data returned: 3.68

Data request: Param item: CC(C)OCCC(=O)N(C)CCCc1cc(-c2ccccc2)no1
Data returned: -1.98

Data request: Param item: CCc1n[nH]c(C2CN(C(=O)CCc3cccs3)CCO2)n1 (stereo not drawn)
Data returned: 4.17

Each recorded value in this set is attributed to ChEMBL document CHEMBL3988442.
